Listing of entries alongside the reported EC50.
target.or.system: Hypoxia-inducible factor 1-alpha (Homo sapiens)
experiment.description: activators of HIF1alpha nuclear accumulation, confirmation, imaging, fluorescence, U2OS GFP-HIF1alpha (AID 434951)
reported.conditions: U2OS GFP-HIF1alpha nuclear intensity, high-content imaging
Active and inactive are the calls of the source.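 How the source made its calls: active means a fitted half-maximal concentration EC50 for the rise in nuclear signal no higher than ten times the top dose tested; inconclusive means flat fit with activity between 30% and 70%, or unusable fit; inactive means EC50 beyond ten times the top dose.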

>  <molecule>
COc1ccc2cc(C(C)C(=O)N3CCC(C(N)=O)CC3)ccc2c1 (stereo not drawn)

>  <target.or.system>
Hypoxia-inducible factor 1-alpha (Homo sapiens)

>  <EC50>
> 35 µM (inactive)

$$$$
>  <molecule>
Cc1ccnc(NS(=O)(=O)c2cc([N+](=O)[O-])ccc2C)c1

>  <target.or.system>
Hypoxia-inducible factor 1-alpha (Homo sapiens)

>  <EC50>
> 35 µM (inactive)

$$$$
>  <molecule>
c1ccc(OCc2nc(-c3ccncc3)no2)cc1

>  <target.or.system>
Hypoxia-inducible factor 1-alpha (Homo sapiens)

>  <EC50>
> 35 µM (inactive)

$$$$
